Tested on: 317291-083-R-J1-PDC complex spheroids, viability
Assay: Anticancer human tumor 317291-083-R-J1-PDC patient-derived soft tissue sarcoma cell line growth inhibition [GQUAD]
Conditions: second compound 0.1 µM; first compound 0.0316 µM; stronger effect = lower value
Exam item: assign condition met to entries whose viability, T/C is below 90% and condition not met to entries at or above 90%. Note that a value of exactly 90% receives condition not met.

Past entries and their recorded results:
# compound, assigned_label
rows = [
    ("Cn1ncnc1[C@H]1c2n[nH]c(=O)c3cc(F)cc(c23)N[C@@H]1c1ccc(F)cc1 + Cc1cnc(CNC(=O)c2c(=O)c3ccc(N4CCCN(C)CC4)nc3n3c2sc2ccccc23)cn1", "condition met"),
    ("O=c1[nH]cc(F)c(=O)[nH]1 + Cc1cnc(CNC(=O)c2c(=O)c3ccc(N4CCCN(C)CC4)nc3n3c2sc2ccccc23)cn1", "condition met"),
    ("COc1cc(C2c3cc4c(cc3C(OC3OC5COC(C)OC5C(O)C3O)C3COC(=O)C23)OCO4)cc(OC)c1O (stereo unspecified) + Cc1[nH]c2ccc(F)cc2c1-c1nc2c3cccnc3c3ncccc3c2[nH]1", "condition not met"),
    ("CC(C)n1c(=O)n(C)c2cnc3cc(F)c(-c4ccc(OCCCN5CCCCC5)nc4)cc3c21 + Cc1[nH]c2ccc(F)cc2c1-c1nc2c3cccnc3c3ncccc3c2[nH]1", "condition not met"),
    ("COc1ncnc(C2CC2)c1-c1ncc2cnn(Cc3ccc(-c4nc(C(F)(F)F)cn4C(C)C)cc3)c2n1 + Cc1[nH]c2ccc(F)cc2c1-c1nc2c3cccnc3c3ncccc3c2[nH]1", "condition met"),
    ("COc1ccc([C@@H](O)c2cc(-c3ncnc4cc(N5CCOCC5)ccc34)c(F)cc2Cl)nn1 + Cc1cnc(CNC(=O)c2c(=O)c3ccc(N4CCCN(C)CC4)nc3n3c2sc2ccccc23)cn1", "condition met"),
    ("CC1COCCN1c1cc(C2(S(C)(=N)=O)CC2)nc(-c2ccnc3[nH]ccc23)n1 (stereo unspecified) + Cc1[nH]c2ccc(F)cc2c1-c1nc2c3cccnc3c3ncccc3c2[nH]1", "condition not met"),
    ("Cc1[nH]c2ccccc2c1CCNCc1ccc(/C=C/C(=O)NO)cc1 + Cc1cnc(CNC(=O)c2c(=O)c3ccc(N4CCCN(C)CC4)nc3n3c2sc2ccccc23)cn1", "condition met"),
]

Switching to the query record.
Task: Field: below-cutoff. Rule: recorded viability, T/C strictly less than 90%. Subject: CC1COCCN1c1cc(C2(S(C)(=N)=O)CC2)nc(-c2ccnc3[nH]ccc23)n1 (stereo unspecified) + Cc1cnc(CNC(=O)c2c(=O)c3ccc(N4CCCN(C)CC4)nc3n3c2sc2ccccc23)cn1
Output: condition met

###

Tested on: 317291-083-R-J1-PDC complex spheroids, viability
Experiment: Anticancer human tumor 317291-083-R-J1-PDC cell line growth inhibition [GQUAD];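 also: spheroids exposed to compounds for one week before readout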;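 as to viability, T/C: percent viability relative to DMSO vehicle wells taken as 100%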
Conditions: second compound 10 µM; first compound 0.316 µM; stronger effect = lower value
For each record, write down the corresponding viability, T/C.

Solved cases (4 shown):
# compound, result
measured = [
    ("CCCS(=O)(=O)Nc1ccc(F)c(C(=O)c2c[nH]c3ncc(-c4ccc(Cl)cc4)cc23)c1F + Cc1cnc(CNC(=O)c2c(=O)c3ccc(N4CCCN(C)CC4)nc3n3c2sc2ccccc23)cn1", "24.3%"),
    ("CC1COCCN1c1cc(C2(O)CC3CCC(C2)O3)c2cnn(-c3ccn[nH]3)c2n1 (stereo unspecified) + Cc1cnc(CNC(=O)c2c(=O)c3ccc(N4CCCN(C)CC4)nc3n3c2sc2ccccc23)cn1", "16.9%"),
    ("C=CCn1c(=O)c2cnc(Nc3ccc(N4CCN(C)CC4)cc3)nc2n1-c1cccc(C(C)(C)O)n1 + Cc1cnc(CNC(=O)c2c(=O)c3ccc(N4CCCN(C)CC4)nc3n3c2sc2ccccc23)cn1", "0.18%"),
    ("O=c1[nH]cc(F)c(=O)[nH]1 + Cc1[nH]c2ccc(F)cc2c1-c1nc2c3cccnc3c3ncccc3c2[nH]1", "81.5%"),
]

Value sought for every listed compound: viability, T/C.
1. COc1ncnc(C2CC2)c1-c1ncc2cnn(Cc3ccc(-c4nc(C(F)(F)F)cn4C(C)C)cc3)c2n1 + Cc1cnc(CNC(=O)c2c(=O)c3ccc(N4CCCN(C)CC4)nc3n3c2sc2ccccc23)cn1
2. O=C(c1cc(Cc2n[nH]c(=O)c3ccccc23)ccc1F)N1CCN(C(=O)C2CC2)CC1 + Cc1[nH]c2ccc(F)cc2c1-c1nc2c3cccnc3c3ncccc3c2[nH]1

Output:
["0.22%", "96.3%"]

###

For each record, write down the corresponding IC50.
Test system: 317291-083-R-J1-PDC complex spheroids, viability
Assay: Anticancer human tumor 317291-083-R-J1-PDC cell line growth inhibition [GQUAD];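 also: spheroids exposed to compounds for one week before readout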
Settings: curve of first compound; second compound 0.0316 µM

# compound, IC50
data = [
    ("CCc1c2c(nc3ccc(O)cc13)-c1cc3c(c(=O)n1C2)COC(=O)[C@]3(O)CC + Cc1[nH]c2ccc(F)cc2c1-c1nc2c3cccnc3c3ncccc3c2[nH]1", "1.69 nM"),
    ("CC1COCCN1c1cc(C2(O)CC3CCC(C2)O3)c2cnn(-c3ccn[nH]3)c2n1 (stereo not given) + Cc1cnc(CNC(=O)c2c(=O)c3ccc(N4CCCN(C)CC4)nc3n3c2sc2ccccc23)cn1", "< 31.6 nM"),
    ("C#Cc1c(F)ccc2cc(O)cc(-c3ncc4c(N5CC6CCC(C5)N6)nc(OCC56CCCN5CC(F)C6)nc4c3F)c12 (stereo not given) + CN(C)c1ccc(Nc2c3ccc(NC(=O)CCN4CCCC4)cc3nc3cc(NC(=O)CCN4CCCC4)ccc23)cc1", "5660 nM"),
]

Value sought for every listed compound: IC50.
1. O=C(NO)c1cnc(N2CCN(S(=O)(=O)c3ccc4ccccc4c3)CC2)nc1 + Cc1[nH]c2ccc(F)cc2c1-c1nc2c3cccnc3c3ncccc3c2[nH]1
2. CC1COCCN1c1cc(-c2ccnn2C)c2ccnc(-c3ccn[nH]3)c2n1 (stereo not given) + Cc1cnc(CNC(=O)c2c(=O)c3ccc(N4CCCN(C)CC4)nc3n3c2sc2ccccc23)cn1

Output:
153 nM
< 31.6 nM

###

For each record, write down the corresponding viability, T/C.
System: 317291-083-R-J1-PDC complex spheroids, viability
Test: Anticancer human tumor 317291-083-R-J1-PDC cell line growth inhibition [GQUAD];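 also: spheroids exposed to compounds for one week before readout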;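 as to viability, T/C: percent viability relative to DMSO vehicle wells taken as 100%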
Settings: second compound 3.16 µM; first compound 0.1 µM; stronger effect = lower value
Answers are plain numbers, in %.

Solved cases (2 shown):
# compound, viability, T/C (%)
measured = [
    ("Nc1ccn(C2OC(CO)C(O)C2(F)F)c(=O)n1 (stereo not drawn) + CN(C)c1ccc(Nc2c3ccc(NC(=O)CCN4CCCC4)cc3nc3cc(NC(=O)CCN4CCCC4)ccc23)cc1", 7.01),
    ("Nc1ccn(C2OC(CO)C(O)C2(F)F)c(=O)n1 (stereo not drawn) + Cc1[nH]c2ccc(F)cc2c1-c1nc2c3cccnc3c3ncccc3c2[nH]1", 22.5),
]

Let us examine a further case.
Task: Which value of viability, T/C has been reported for C=CCn1c(=O)c2cnc(Nc3ccc(N4CCN(C)CC4)cc3)nc2n1-c1cccc(C(C)(C)O)n1 + CN(C)c1ccc(Nc2c3ccc(NC(=O)CCN4CCCC4)cc3nc3cc(NC(=O)CCN4CCCC4)ccc23)cc1 in the records?
Output: 1.03

###

For each record, write down the corresponding IC50.
Tested on: 317291-083-R-J1-PDC complex spheroids, viability
Experiment: Anticancer human tumor 317291-083-R-J1-PDC cell line growth inhibition [GQUAD];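 also: spheroids exposed to compounds for one week before readout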
Settings: curve of first compound; second compound 0.0316 µM
Numbers only, in µM.

# molecule, test_system, property_label, result_number
rows = [
    ("O=c1[nH]cc(F)c(=O)[nH]1 + Cc1[nH]c2ccc(F)cc2c1-c1nc2c3cccnc3c3ncccc3c2[nH]1", "317291-083-R-J1-PDC complex spheroids, viability", "IC50", 5.34),
    ("Cc1[nH]c2ccccc2c1CCNCc1ccc(/C=C/C(=O)NO)cc1 + Cc1[nH]c2ccc(F)cc2c1-c1nc2c3cccnc3c3ncccc3c2[nH]1", "317291-083-R-J1-PDC complex spheroids, viability", "IC50", 0.0434),
]

Let us examine a further case.
Task: Which value of IC50 has been reported for CCCS(=O)(=O)Nc1ccc(F)c(C(=O)c2c[nH]c3ncc(-c4ccc(Cl)cc4)cc23)c1F + Cc1[nH]c2ccc(F)cc2c1-c1nc2c3cccnc3c3ncccc3c2[nH]1 in the records?
Output: 2.61

###

For each record, write down the corresponding IC50.
Test system: 317291-083-R-J1-PDC complex spheroids, viability
Assay: Anticancer human tumor 317291-083-R-J1-PDC cell line growth inhibition [GQUAD];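 also: spheroids exposed to compounds for one week before readout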
Conditions: curve of first compound; second compound 1 µM

Solved cases (4 shown):
# compound, IC50
data = [
    ("CC1COCCN1c1cc(C2(O)CC3CCC(C2)O3)c2cnn(-c3ccn[nH]3)c2n1 (stereo not given) + Cc1cnc(CNC(=O)c2c(=O)c3ccc(N4CCCN(C)CC4)nc3n3c2sc2ccccc23)cn1", "< 31.6 nM"),
    ("C=CCn1c(=O)c2cnc(Nc3ccc(N4CCN(C)CC4)cc3)nc2n1-c1cccc(C(C)(C)O)n1 + CN(C)c1ccc(Nc2c3ccc(NC(=O)CCN4CCCC4)cc3nc3cc(NC(=O)CCN4CCCC4)ccc23)cc1", "< 31.6 nM"),
    ("O=C(NO)c1cnc(N2CCN(S(=O)(=O)c3ccc4ccccc4c3)CC2)nc1 + Cc1cnc(CNC(=O)c2c(=O)c3ccc(N4CCCN(C)CC4)nc3n3c2sc2ccccc23)cn1", "< 31.6 nM"),
    ("C=CCn1c(=O)c2cnc(Nc3ccc(N4CCN(C)CC4)cc3)nc2n1-c1cccc(C(C)(C)O)n1 + Cc1cnc(CNC(=O)c2c(=O)c3ccc(N4CCCN(C)CC4)nc3n3c2sc2ccccc23)cn1", "< 31.6 nM"),
]

Let us examine a further case.
Task: Which value of IC50 has been reported for CC(C)(O)C1CCC(Nc2ccc3ncc(-c4cccc(C(F)(F)F)c4)n3n2)CC1 (stereo not given) + CN(C)c1ccc(Nc2c3ccc(NC(=O)CCN4CCCC4)cc3nc3cc(NC(=O)CCN4CCCC4)ccc23)cc1 in the records?
Output: 44.7 nM
